- Target Entity: SMARCA2 (Homo sapiens, UniProt P51531)
- Sequence (P51531 whole entry): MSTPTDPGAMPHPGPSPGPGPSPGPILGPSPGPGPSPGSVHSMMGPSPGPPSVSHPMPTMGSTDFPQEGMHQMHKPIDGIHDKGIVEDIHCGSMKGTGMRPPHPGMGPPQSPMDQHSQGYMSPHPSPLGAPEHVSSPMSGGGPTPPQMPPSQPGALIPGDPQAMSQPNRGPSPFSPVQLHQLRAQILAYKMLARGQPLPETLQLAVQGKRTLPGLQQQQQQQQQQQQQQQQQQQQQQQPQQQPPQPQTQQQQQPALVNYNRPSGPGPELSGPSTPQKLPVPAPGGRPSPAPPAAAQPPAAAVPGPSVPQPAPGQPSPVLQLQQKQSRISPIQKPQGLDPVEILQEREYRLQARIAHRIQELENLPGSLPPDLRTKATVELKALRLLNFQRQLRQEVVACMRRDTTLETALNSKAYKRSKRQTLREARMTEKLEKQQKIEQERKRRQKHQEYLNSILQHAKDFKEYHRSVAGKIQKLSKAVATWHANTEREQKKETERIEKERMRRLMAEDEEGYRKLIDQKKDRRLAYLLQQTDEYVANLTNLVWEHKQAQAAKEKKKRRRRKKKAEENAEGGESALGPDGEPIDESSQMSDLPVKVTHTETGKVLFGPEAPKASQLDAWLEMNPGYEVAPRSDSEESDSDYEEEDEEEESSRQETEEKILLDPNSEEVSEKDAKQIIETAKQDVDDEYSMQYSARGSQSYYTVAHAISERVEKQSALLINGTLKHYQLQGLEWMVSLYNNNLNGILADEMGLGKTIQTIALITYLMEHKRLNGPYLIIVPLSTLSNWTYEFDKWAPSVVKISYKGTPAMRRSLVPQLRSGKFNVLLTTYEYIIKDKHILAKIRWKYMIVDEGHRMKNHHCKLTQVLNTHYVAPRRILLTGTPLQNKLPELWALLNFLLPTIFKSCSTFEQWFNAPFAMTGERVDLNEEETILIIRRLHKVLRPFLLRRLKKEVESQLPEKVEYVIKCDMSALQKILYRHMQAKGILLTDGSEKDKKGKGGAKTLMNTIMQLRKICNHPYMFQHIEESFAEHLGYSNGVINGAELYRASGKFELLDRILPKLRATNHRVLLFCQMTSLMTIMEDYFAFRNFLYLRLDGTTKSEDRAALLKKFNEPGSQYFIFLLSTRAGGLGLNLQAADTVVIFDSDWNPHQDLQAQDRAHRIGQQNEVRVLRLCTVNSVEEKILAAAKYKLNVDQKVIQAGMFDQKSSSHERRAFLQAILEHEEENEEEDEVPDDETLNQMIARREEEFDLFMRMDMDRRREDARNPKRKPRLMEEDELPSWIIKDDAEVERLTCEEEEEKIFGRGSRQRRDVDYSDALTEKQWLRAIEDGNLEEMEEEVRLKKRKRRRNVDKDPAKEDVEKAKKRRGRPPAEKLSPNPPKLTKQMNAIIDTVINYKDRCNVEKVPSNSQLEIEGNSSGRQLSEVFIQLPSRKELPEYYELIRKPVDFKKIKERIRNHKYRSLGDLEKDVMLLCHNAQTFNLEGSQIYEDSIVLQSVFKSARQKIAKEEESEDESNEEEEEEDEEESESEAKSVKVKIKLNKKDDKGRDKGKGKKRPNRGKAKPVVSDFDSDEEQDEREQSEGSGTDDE
- Assay Comment: SMARCA2 Western blot MV4-11 degradation
- Type: cell-based
- Condition Label: MV4-11, MV4-11 cells, 24 h, read-out: SMARCA2 WB MV411 degradation 24 h: Average Dmax %

{"Molecule": "Cc1ncsc1-c1ccc(CNC(=O)[C@@H]2C[C@@H](O)CN2C(=O)[C@@H](NC(=O)c2ccc(N3CC(n4cc(-c5cc(-c6ccccc6O)nnc5N)cn4)C3)cc2)C(C)(C)C)cc1 [I-514]", "Target Entity": "SMARCA2 (Homo sapiens, UniProt P51531)", "Dmax": "> 90%"}
{"Molecule": "Cc1ncsc1-c1ccc(CNC(=O)[C@@H]2C[C@@H](O)CN2C(=O)[C@@H](NC(=O)[C@H]2CC3(C2)C[C@H](N2CCC(c4cnc(N5C6CCC5CN(c5cc(-c7ccccc7O)nnc5N)C6)nc4)CC2)C3)C(C)(C)C)cc1 (stereo partly drawn) [I-423]", "Target Entity": "SMARCA2 (Homo sapiens, UniProt P51531)", "Dmax": "> 90%"}
{"Molecule": "Cc1ncsc1-c1ccc(CNC(=O)[C@@H]2C[C@@H](O)CN2C(=O)[C@@H](NC(=O)[C@H]2CC[C@H](CCCCCN3CCC(Cn4cc(-c5cc(-c6ccccc6O)nnc5N)cn4)CC3)CC2)C(C)(C)C)cc1 [I-378]", "Target Entity": "SMARCA2 (Homo sapiens, UniProt P51531)", "Dmax": "> 90%"}

====

- Target Entity: SMARCA2 (Homo sapiens, UniProt P51531)
- Assay Comment: MSD SMARCA2 degradation in A549 cell line
- Type: cell-based
- Condition Label: A549 cells, 24 h, read-out: SMARCA2 MSD A549 degradation 24 h: Average external-Abs DC50
Form field: DC50 (one value per entry).
Measurement Type: DC50

{"Compound": "Cc1ncsc1-c1ccc(CNC(=O)[C@@H]2C[C@@H](O)CN2C(=O)[C@@H](NC(=O)[C@H]2CC3CCC2C[C@@H]3c2cnc(N3C4CCC3CN(c3cc(-c5ccccc5O)nnc3N)C4)nc2)C(C)(C)C)cc1 (stereo partly shown) [I-441]", "Measurement Type": "DC50", "Result": "100 to 500 nM"}
{"Compound": "Cc1ncsc1-c1ccc(CNC(=O)[C@@H]2C[C@@H](O)CN2C(=O)[C@@H](NC(=O)[C@@H](C)N2CCC(c3cnc(N4C5CCC4CN(c4cc(-c6ccccc6O)nnc4N)C5)nc3)CC2)C(C)(C)C)cc1 [I-482]", "Measurement Type": "DC50", "Result": "501 to 1000 nM"}
{"Compound": "Cc1ncsc1-c1ccc(CNC(=O)[C@@H]2C[C@@H](O)CN2C(=O)[C@@H](NC(=O)c2ccc(-c3ccc(CN4CCC(Cn5cc(-c6cc(-c7ccccc7O)nnc6N)cn5)CC4)cc3)cc2)C(C)(C)C)cc1 [I-507]", "Measurement Type": "DC50", "Result": "< 100 nM"}
{"Compound": "Cc1ncsc1-c1ccc(CNC(=O)[C@@H]2C[C@@H](O)CN2C(=O)[C@@H](NC(=O)[C@H]2CC[C@H](CCCN3CCC(n4cc(-c5cc(-c6ccccc6O)nnc5N)cn4)CC3)CC2)C(C)(C)C)cc1 [I-401]", "Measurement Type": "DC50", "Result": "100 to 500 nM"}
{"Compound": "Cc1ncsc1-c1ccc(CNC(=O)[C@@H]2C[C@@H](O)CN2C(=O)[C@@H](NC(=O)[C@H]2CC3(C2)C[C@H](c2cnc(N4C5CCC4CN(c4cc(-c6ccccc6O)nnc4N)C5)nc2)C3)C(C)(C)C)c(C(F)(F)F)c1 (stereo partly shown) [I-419]", "Measurement Type": "DC50", "Result": "100 to 500 nM"}
{"Compound": "CN(Cc1ccc(C#Cc2cc(NC(=O)Nc3cc(F)ncc3CO)ccn2)cc1)CC1CCN(Cc2cccc3c2n(C)c(=O)n3C2CCC(=O)NC2=O)CC1 (stereo not shown) [I-308]", "Measurement Type": "DC50", "Result": "> 1000 nM"}
{"Compound": "Cc1ncsc1-c1ccc(CNC(=O)[C@@H]2C[C@@H](N)CN2C(=O)[C@@H](NC(=O)CCCNCc2ccc(C#Cc3cc(NC(=O)Nc4cc(F)ncc4CO)ccn3)cc2)C(C)(C)C)cc1 [I-492]", "Measurement Type": "DC50", "Result": "> 1000 nM"}
{"Compound": "Nc1nnc(-c2ccccc2O)cc1N1CC2CCC(C1)N2c1ncc(C2CCN(CCCCCCOc3ccc(Oc4ccc(N(Cc5ccccc5)C(=O)CCl)cc4)cc3)CC2)cn1 [I-531]", "Measurement Type": "DC50", "Result": "> 1000 nM"}
{"Compound": "Cc1ncsc1-c1ccc(CNC(=O)[C@@H]2C[C@@H](O)CN2C(=O)[C@@H](NC(=O)[C@H]2CC[C@H](Cc3ccc(-c4cnc(N5C6CCC5CN(c5cc(-c7ccccc7O)nnc5N)C6)nc4)cc3)CC2)C(C)(C)C)cc1 [I-437]", "Measurement Type": "DC50", "Result": "< 100 nM"}
{"Compound": "Cc1ncsc1-c1ccc(CNC(=O)[C@@H]2C[C@@H](O)CN2C(=O)[C@@H](NC(=O)CCCCCNCc2cccc(C#Cc3cc(NC(=O)Nc4cc(F)ncc4CO)ccn3)c2)C(C)(C)C)cc1 [I-489]", "Measurement Type": "DC50", "Result": "> 1000 nM"}
{"Compound": "Cc1ncsc1-c1ccc(CNC(=O)[C@@H]2C[C@@H](O)CN2C(=O)[C@@H](NC(=O)[C@@H]2CC3CCC2C[C@@H]3c2cnc(N3C4CCC3CN(c3cc(-c5ccccc5O)nnc3N)C4)nc2)C(C)(C)C)cc1 (stereo partly shown) [I-410]", "Measurement Type": "DC50", "Result": "100 to 500 nM"}
{"Compound": "Cc1ncsc1-c1ccc(CNC(=O)[C@@H]2C[C@@H](O)CN2C(=O)[C@@H](NC(=O)[C@H]2C[C@]3(C2)C[C@H](c2cnc(N4C5CCC4CN(c4cc(-c6ccccc6O)nnc4N)C5)nc2)C3)C(C)(C)C)c(C(F)(F)F)c1 (stereo partly shown) [I-420]", "Measurement Type": "DC50", "Result": "100 to 500 nM"}
{"Compound": "Cc1ncsc1-c1ccc(CNC(=O)[C@@H]2C[C@@H](O)CN2C(=O)[C@@H](NC(=O)C2CCC(c3cnc(N4C5CCC4CN(c4cc(-c6ccccc6O)nnc4N)C5)nc3)CC2C)C(C)(C)C)cc1 (stereo partly shown) [I-444]", "Measurement Type": "DC50", "Result": "501 to 1000 nM"}
{"Compound": "Cc1ncsc1-c1ccc(CNC(=O)[C@@H]2C[C@@H](O)CN2C(=O)[C@@H](NC(=O)CC2CCC(c3cnc(N4C5CCC4CN(c4cc(-c6ccccc6O)nnc4N)C5)nc3)CC2)C(C)(C)C)cc1 (stereo partly shown) [I-502]", "Measurement Type": "DC50", "Result": "< 100 nM"}
{"Compound": "Cc1ncsc1-c1ccc(CNC(=O)[C@@H]2C[C@@H](O)CN2C(=O)[C@@H](NC(=O)CCCN(C)CC#Cc2cnc(N3C4CCC3CN(c3cc(-c5ccccc5O)nnc3N)C4)nc2)C(C)(C)C)cc1 [I-497]", "Measurement Type": "DC50", "Result": "> 1000 nM"}
{"Compound": "Cc1ncsc1-c1ccc(CNC(=O)[C@@H]2C[C@@H](O)CN2C(=O)[C@@H](NC(=O)N2CCC3(CCC(c4cnc(N5C6CCC5CN(c5cc(-c7ccccc7O)nnc5N)C6)nc4)CC3)CC2)C(C)(C)C)cc1 [I-510]", "Measurement Type": "DC50", "Result": "100 to 500 nM"}
{"Compound": "Cc1cc(CC(=O)N[C@H](C(=O)N2C[C@H](O)C[C@H]2C(=O)NCc2ccc(-c3scnc3C)cc2)C(C)(C)C)ccc1-c1cnc(N2C3CCC2CN(c2cc(-c4ccccc4O)nnc2N)C3)nc1 [I-345]", "Measurement Type": "DC50", "Result": "< 100 nM"}
{"Compound": "Cc1ncsc1-c1ccc(CNC(=O)[C@@H]2C[C@@H](O)CN2C(=O)[C@@H](NC(=O)CN2CCC(c3cnc(N4C5CCC4CN(c4cc(-c6ccccc6O)nnc4N)C5)nc3)CC2)C(C)(C)C)c(C(F)(F)F)c1 [I-522]", "Measurement Type": "DC50", "Result": "100 to 500 nM"}
{"Compound": "Cc1ncsc1-c1ccc(CNC(=O)[C@@H]2C[C@@H](O)CN2C(=O)[C@@H](NC(=O)[C@H]2CCN(Cc3cnc(N4C5CCC4CN(c4cc(-c6ccccc6O)nnc4N)C5)nc3)C2)C(C)(C)C)cc1 [I-387]", "Measurement Type": "DC50", "Result": "> 1000 nM"}
